Biological target: Caspase-6 (Homo sapiens)
Sequence (P55212 whole entry): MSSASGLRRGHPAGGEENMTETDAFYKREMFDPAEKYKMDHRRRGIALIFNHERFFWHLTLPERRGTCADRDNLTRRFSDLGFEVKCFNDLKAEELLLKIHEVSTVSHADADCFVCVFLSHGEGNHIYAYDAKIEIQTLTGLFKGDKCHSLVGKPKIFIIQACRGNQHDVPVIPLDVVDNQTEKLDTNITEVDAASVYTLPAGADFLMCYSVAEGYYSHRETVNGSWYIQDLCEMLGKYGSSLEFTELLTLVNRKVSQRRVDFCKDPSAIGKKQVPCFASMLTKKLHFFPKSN
Experiment: Inhibition of Caspase-6
PROPERTY: IC50 (nM)

Solved cases below.
# COMPOUND, RESULT_UNITS, IC50
records = [
    ("CC(C)C(NC(=O)CCOc1cccc2ccccc12)C(=O)N[C@H]1CC(=O)OC1O (some centres undefined)", "nM", 4600),
    ("CC(C)CC(NC(=O)[C@H](CCC(=O)O)Oc1cccc2ccccc12)C(=O)N[C@H]1CC(=O)OC1O (some centres undefined)", "nM", 3.5),
    ("CC(C)CC(NC(=O)CNc1cccc2ccccc12)C(=O)N[C@H]1CC(=O)OC1O (some centres undefined)", "nM", 37),
    ("CC(C)C(NC(=O)CNc1cccc2ccccc12)C(=O)N[C@H]1CC(=O)OC1O (some centres undefined)", "nM", 7000),
    ("CC(C)C[C@H](NC(=O)C(C)Nc1cccc2ccccc12)C(=O)N[C@H]1CC(=O)OC1O (some centres undefined)", "nM", 310),
]

I: CC(C)CC(NC(=O)CNCC(Cc1ccccc1)c1ccccc1)C(=O)N[C@H]1CC(=O)OC1O (some centres undefined)
II: CC(C)CC(NC(=O)CNc1cccc(Oc2ccccc2)c1)C(=O)N[C@H]1CC(=O)OC1O (some centres undefined)
III: CC(C)CC(NC(=O)[C@@H](CCC(=O)O)Oc1cccc2ccccc12)C(=O)N[C@H]1CC(=O)OC1O (some centres undefined)
IV: CC(C)C(NC(=O)COc1cccc2c(NS(=O)(=O)C(F)(F)F)cccc12)C(=O)N[C@H]1CC(=O)OC1O (some centres undefined)
V: CC(C)C(NC(=O)COc1cc2ccccc2cc1NS(=O)(=O)C(F)(F)F)C(=O)N[C@H]1CC(=O)OC1O (some centres undefined)
Write the entries in order, lowest recorded IC50 first. State the ranking by listing the labels in the requested order.
III, II, I, IV, V

---

Molecular target: Caspase-8 (Homo sapiens, UniProt Q14790)
Sequence (Q14790 217-374 limits assumed): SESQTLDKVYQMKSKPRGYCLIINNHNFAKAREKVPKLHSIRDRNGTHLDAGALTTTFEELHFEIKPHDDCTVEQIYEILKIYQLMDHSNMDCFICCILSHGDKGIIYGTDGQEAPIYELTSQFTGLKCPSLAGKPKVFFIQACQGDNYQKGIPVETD
Sequence (Q14790 385-479 limits assumed): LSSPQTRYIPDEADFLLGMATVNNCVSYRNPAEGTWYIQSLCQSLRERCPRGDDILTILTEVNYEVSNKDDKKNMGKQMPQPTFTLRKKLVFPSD
Test: Inhibition of Caspase-8 enzyme
pIC50: −log10 of the molar value.
PROPERTY: pIC50

Solved cases below.
# MOLECULE, pIC50
measured = [
    ("CC(C)C(NC(=O)COc1cccc2c(NS(=O)(=O)C(F)(F)F)cccc12)C(=O)N[C@H]1CC(=O)OC1O (stereo not given in full)", 6.21),
    ("CC(C)CC(NC(=O)CNc1cccc(Oc2ccccc2)c1)C(=O)N[C@H]1CC(=O)OC1O (stereo not given in full)", 6.17),
    ("CC(C)CC(NC(=O)CNc1cccc2ccccc12)C(=O)N[C@H]1CC(=O)OC1O (stereo not given in full)", 8.12),
]

P: CC(C)C(NC(=O)COc1cc2ccccc2cc1C(=O)O)C(=O)N[C@H]1CC(=O)OC1O (stereo not given in full)
Q: CC(C)CC(NC(=O)CNCC(Cc1ccccc1)c1ccccc1)C(=O)N[C@H]1CC(=O)OC1O (stereo not given in full)
Between the entries labeled P and Q , whose measured pIC50 is lower? Respond with the label that goes with your answer.
Q
